GI50 listing for selected compounds.
- System: MDA-N
- Measurement Description: NCI tumour cell line growth inhibition, 48 h
Active and inactive are the calls of the source. Rule as the data show it: active = GI50 up to about 1.1 µM and inactive = higher.
Assay Metric: GI50

[[record]]
compound = "CCOC(=O)/C=C(\\C(=O)OCC)n1ccc(=O)n(CC(=O)OCC)c1=O"
reading = "5.96 µM (inactive)"

[[record]]
compound = "CC(C)(C)OC(=O)Cn1ncn(NC(=O)Cc2ccccc2)c1=O"
reading = "> 10 µM (inactive)"

[[record]]
compound = "COc1cc2nncc(SCc3ccc(Cl)c(Cl)c3)c2cc1OC"
reading = "> 100 µM (inactive)"

[[record]]
compound = "COc1ccc(/N=N\\c2c(N)nn3c(SC)c(C#N)c(N)nc23)cc1"
reading = "13.6 µM (inactive)"

[[record]]
compound = "C[C@@H]1CC[C@@]2(OC1)O[C@H]1C[C@H]3[C@@H]4CC[C@H]5C[C@@H](OC6OC(CO)C(OC7OC(CO)C(O)C(OC8OCC(O)C(O)C8O)C7OC7OC(CO)C(O)C(O)C7O)C(O)C6O)[C@H](O)C[C@]5(C)[C@H]4CC[C@]3(C)[C@H]1[C@@H]2C (stereo partly drawn)"
reading = "10.8 µM (inactive)"

[[record]]
compound = "Nc1cc2c(c3ccccc13)C(CCl)CN2C(=O)c1cc2cc(NC(=O)Nc3ccc4[nH]c(C(=O)N5CC(CCl)c6c5cc(N)c5ccccc65)cc4c3)ccc2[nH]1 (stereo not drawn)"
reading = "0.292 µM (active)"

[[record]]
compound = "Clc1ccccc1/C=C/c1ccnc2ccccc12"
reading = "14.6 µM (inactive)"

[[record]]
compound = "O=S(=O)(O)c1cc(/N=[N+](\\[O-])c2cc(S(=O)(=O)O)c3ccccc3c2)cc2ccccc12"
reading = "20 µM (inactive)"

[[record]]
compound = "CCc1cc2c(c3c1CCCC3)CC1(Cc3ccc(C(=O)OC)cc3C1)C2 (stereo not drawn)"
reading = "> 100 µM (inactive)"

[[record]]
compound = "CSC1=NS(=O)(=O)c2cc(C(=O)NN(C)C(=O)c3cc4c(cc3Cl)SC(SC)=NS4(=O)=O)c(Cl)cc2S1"
reading = "> 10 µM (inactive)"

[[record]]
compound = "CC(=O)N[C@@H](Cc1ccc(O)cn1)C(=O)NC1CCCCC1"
reading = "> 100 µM (inactive)"

[[record]]
compound = "CC1=CC(=O)/C(=C/NC(=S)c2ccncc2)C(=O)O1"
reading = "> 100 µM (inactive)"

[[record]]
compound = "CC1=C(c2ccccc2)NC(=S)C(C)C(c2ccccc2)=N1 (stereo not drawn)"
reading = "16.9 µM (inactive)"

[[record]]
compound = "CC(=O)OCC1OC(On2ccccc2=S)C(OC(C)=O)C(OC(C)=O)C1OC(C)=O (stereo not drawn)"
reading = "> 100 µM (inactive)"

[[record]]
compound = "CN(C)CCn1c(=O)c2ccc3c4c(nn3CCN(C)C)c3cc(N)ccc3n(c1=O)c24"
reading = "< 0.0239 µM (active)"

[[record]]
compound = "O=C1C(NCCc2ccc(O)c([N+](=O)[O-])c2)=CC(=O)c2[nH]cnc21"
reading = "16.3 µM (inactive)"

[[record]]
compound = "O=C1Nc2ccc(Br)cc2/C1=N/NC(=S)Nc1ccc(F)cc1"
reading = "2.98 µM (inactive)"

[[record]]
compound = "CC(=O)NCCC1CN(C(=O)/C=C\\C#C[Si](C)(C)C)c2ccccc21 (stereo not drawn)"
reading = "13.5 µM (inactive)"

